The measured values listed here are drawn from the NIST ThermoML archive (doi:10.1021/je201289w).

- conditionInfo: 323.15 K; 101.33 kPa; Liquid; Vibrating tube method
experimentalReadout: mass density (kg/m3)
Kindly provide the numeric value in kg/m3 only, without the unit symbol.

May I ask what mass density has been recorded for CCn1cc[n+](C)c1.O=S(=O)([N-]S(=O)(=O)C(F)(F)F)C(F)(F)F ? 1493.3

May I ask what mass density has been recorded for CCn1cc[n+](C)c1.O=S(=O)([O-])O [1-ethyl-3-methylimidazolium hydrogen sulfate] ? 1351.5

May I ask what mass density has been recorded for CCn1cc[n+](C)c1.N#C[B-](C#N)(C#N)C#N [1-ethyl-3-methylimidazolium tetracyanoborate] ? 1009.1

May I ask what mass density has been recorded for CCn1cc[n+](C)c1.F[B-](F)(F)F [1-ethyl-3-methylimidazolium tetrafluoroborate] ? 1261.6

====

- conditionInfo: 298.15 K; 101.33 kPa; Liquid; Vibrating tube method
experimentalReadout: mass density (kg/m3)
Kindly provide the numeric value in kg/m3 only, without the unit symbol.

May I ask what mass density has been recorded for CCn1cc[n+](C)c1.O=S(=O)([O-])O [1-ethyl-3-methylimidazolium hydrogen sulfate] ? 1367.4

May I ask what mass density has been recorded for CCn1cc[n+](C)c1.F[B-](F)(F)F [1-ethyl-3-methylimidazolium tetrafluoroborate] ? 1280.5

May I ask what mass density has been recorded for CCn1cc[n+](C)c1.N#CN=C=[N-] [1-ethyl-3-methylimidazolium dicyanamide] ? 1101.2

May I ask what mass density has been recorded for CCn1cc[n+](C)c1.O=S(=O)([N-]S(=O)(=O)C(F)(F)F)C(F)(F)F ? 1518.5

May I ask what mass density has been recorded for CCCCn1cc[n+](C)c1.O=S(=O)([N-]S(=O)(=O)C(F)(F)C(F)(F)C(F)(F)C(F)(F)F)C(F)(F)C(F)(F)C(F)(F)C(F)(F)F ? 1611.1

May I ask what mass density has been recorded for CCC[N+]1(C)CCCC1.O=S(=O)([N-]S(=O)(=O)C(F)(F)F)C(F)(F)F ? 1427.4

May I ask what mass density has been recorded for CCOS(=O)(=O)[O-].CCn1cc[n+](C)c1 [1-ethyl-3-methylimidazolium ethyl sulfate] ? 1237.6

May I ask what mass density has been recorded for CCn1cc[n+](C)c1.N#C[S-] [1-ethyl-3-methylimidazolium thiocyanate] ? 1115.5

May I ask what mass density has been recorded for CCn1cc[n+](C)c1.CS(=O)(=O)[O-] [1-ethyl-3-methylimidazolium methanesulfonate] ? 1241.6

May I ask what mass density has been recorded for CCn1cc[n+](C)c1.N#C[B-](C#N)(C#N)C#N [1-ethyl-3-methylimidazolium tetracyanoborate] ? 1028.9

====

For each entry below, report its refractive index value.
- methodDescription: refractive index (Na D-line) (dimensionless)
- conditionInfo: 293.15 K; 101.33 kPa; Liquid; Standard Abbe refractometry
Numbers after ± are expanded uncertainties.

May I ask what refractive index has been recorded for CCn1cc[n+](C)c1.CS(=O)(=O)[O-] [1-ethyl-3-methylimidazolium methanesulfonate] ? 1.49718 ± 0.00063

May I ask what refractive index has been recorded for CCn1cc[n+](C)c1.O=S(=O)([O-])O [1-ethyl-3-methylimidazolium hydrogen sulfate] ? 1.4982 ± 0.00061

May I ask what refractive index has been recorded for CCCCn1cc[n+](C)c1.O=S(=O)([N-]S(=O)(=O)C(F)(F)C(F)(F)C(F)(F)C(F)(F)F)C(F)(F)C(F)(F)C(F)(F)C(F)(F)F ? 1.38955 ± 0.00064

May I ask what refractive index has been recorded for CCC[N+]1(C)CCCC1.O=S(=O)([N-]S(=O)(=O)C(F)(F)F)C(F)(F)F ? 1.42201 ± 0.00063

May I ask what refractive index has been recorded for CCn1cc[n+](C)c1.N#C[B-](C#N)(C#N)C#N [1-ethyl-3-methylimidazolium tetracyanoborate] ? 1.44936 ± 0.00066

May I ask what refractive index has been recorded for CCOS(=O)(=O)[O-].CCn1cc[n+](C)c1 [1-ethyl-3-methylimidazolium ethyl sulfate] ? 1.48053 ± 0.00062

May I ask what refractive index has been recorded for CCn1cc[n+](C)c1.N#C[S-] [1-ethyl-3-methylimidazolium thiocyanate] ? 1.55299 ± 0.00064

May I ask what refractive index has been recorded for CCn1cc[n+](C)c1.F[B-](F)(F)F [1-ethyl-3-methylimidazolium tetrafluoroborate] ? 1.413 ± 0.00062

May I ask what refractive index has been recorded for CCn1cc[n+](C)c1.O=S(=O)([N-]S(=O)(=O)C(F)(F)F)C(F)(F)F ? 1.42451 ± 0.00063

May I ask what refractive index has been recorded for CCn1cc[n+](C)c1.N#CN=C=[N-] [1-ethyl-3-methylimidazolium dicyanamide] ? 1.51441 ± 0.00065
